- Tested on: SF-295 CNS
- METHOD: NCI-60 one-dose screen, 48 h (100 = growth as untreated, 0 = no growth, -100 = all killed)
- CONDITIONS: 10 µM unless noted
This is part of a sample that, as a whole, favours compounds with a hit. Of some 83,000 tested, about 20% had one in any assay.
Please provide measured growth for the entries that follow.
Answer format: numeric, % implied, no suffix.

O=c1[nH]nc(-c2ccccc2)c2sc(NC(=S)Nc3ccc(Cl)cc3)nc12 tested on SF-295 CNS gave growth: 98.3

CCCCn1c(=O)c(/C=C/C(=O)/C=C/c2ccc(O)c(OC)c2)cc2ccc(Cl)cc21 tested on SF-295 CNS gave growth: 30.2

COc1cc(NC(=O)COc2cc(C)nc3ccc(OC)cc23)cc(OC)c1 tested on SF-295 CNS gave growth: 96.8

COc1cc(/C=C/C(=O)c2cccs2)ccc1OCc1ccc(Cl)nc1 tested on SF-295 CNS gave growth: 105

CC1(C)Cc2c(Br)c(Br)c(Br)c(OCC(O)CN3CCOCC3)c2O1 (stereo not given) tested on SF-295 CNS gave growth: 113

COC(=O)/C=C1\SC(=Nc2ccc(F)cc2)N(CCc2c[nH]c3ccccc23)C1=O tested on SF-295 CNS gave growth: 97.7

Cc1cc(C)n(-c2nc(-c3cccs3)c(C#N)c(=O)[nH]2)n1 tested on SF-295 CNS gave growth: 92.3

O=C(Nc1nc(-c2ccccc2Cl)cs1)c1cc(-c2ccc(Br)cc2)nc2ccccc12 tested on SF-295 CNS gave growth: 34.4

CCOC(=O)c1sc(/N=C2\NC(=O)/C(=C/c3ccc(N4CCN(C)CC4)cc3)S2)nc1C tested on SF-295 CNS gave growth: 102

O=[N+]([O-])c1cccc(CN(Cc2cccc([N+](=O)[O-])c2O)c2ccccc2)c1O tested on SF-295 CNS gave growth: 66.6

N#Cc1ccc(N2Cc3cc(Cl)ccc3OC3=C2C(=O)N(Cc2ccc(F)cc2)C3=O)cc1 tested on SF-295 CNS gave growth: 66.6

C#CCOC(=O)[C@]1(C)CCC[C@]2(C)[C@H]3C[C@H]4C(C(C)C)=C[C@]3(CC[C@H]21)[C@@H]1C(=O)CCC(=O)[C@@H]14 tested on SF-295 CNS gave growth: 83.7

NC(N)=NC(N)=Nc1cc2ccccc2c2ccccc12 tested on SF-295 CNS gave growth: 53.3

COc1ccccc1C(=O)/C=C/c1cc2cccc(OC)c2[nH]c1=O tested on SF-295 CNS gave growth: 14.1

Cc1ccn2c3c(c(C(=O)O)c2c1)C(=O)c1ccccc1C3=O tested on SF-295 CNS gave growth: 26.9

COc1cc(-c2nn(-c3ccc(Br)cc3)cc2CO)ccc1O tested on SF-295 CNS gave growth: 98.6

OCCNc1nc(NCCO)nc(Nc2ccc(C3=NN(c4cc(Cl)cc(Cl)c4)C(c4ccc(Cl)cc4)C3)cc2)n1 (stereo not given) tested on SF-295 CNS gave growth: -68.3

CC1CCCN(CCCCCOc2ccc3oc4ccc(Cl)cc4c(=O)c3c2)C1 (stereo not given) tested on SF-295 CNS gave growth: 83.1

COc1ccc(OCC(=O)OC(C)C)cc1 tested on SF-295 CNS gave growth: 96.6

O=C1C(Cl)=C(Nc2ccc3c(c2NC2=C(Cl)C(=O)c4ccccc4C2=O)C(=O)c2ccccc2C3=O)C(=O)c2ccccc21 tested on SF-295 CNS gave growth: 23.8

====

- System: ACHN renal
- METHOD: NCI-60 one-dose screen, 48 h (100 = growth as untreated, 0 = no growth, -100 = all killed)
- CONDITIONS: 10 µM unless noted
Compounds without any hit were thinned out: in the full panel of roughly 83,000, 20% have a hit.
Short version: growth at least 70% is T, less is F.

## Task Can C#C[C@@]1(O)[C@@H](CO)O[C@@H](n2cc(I)c3c(N)ncnc32)[C@@H]1O be said to have growth at or above 70%?
## Result F

## Task Can O=[N+]([O-])c1ccc(Oc2ccc(-c3ccccc3)cc2)cc1 be said to have growth at or above 70%?
## Result T

## Task Can Cc1nc(C)c(C)nc1C be said to have growth at or above 70%?
## Result T

## Task Can CC(=O)c1cnc(-c2ccccc2)nc1CBr be said to have growth at or above 70%?
## Result F

## Task Can Cc1cc(C)cc(Nc2nccc(-c3c(-c4ccc(F)cc4)ncn3C3CCNCC3)n2)c1 be said to have growth at or above 70%?
## Result F

## Task Can O=C(N/N=C/C[C@@H]1[C@@H](/C=C/[C@@H](O)COc2cccc(Cl)c2)[C@H](O)C[C@@H]1O)c1ccncc1 be said to have growth at or above 70%?
## Result T

## Task Can CCN1CCN(Cc2ccc(NC(=O)c3cccc(C#Cc4cccc5[nH]nc(N)c45)c3)cc2C(F)(F)F)CC1 be said to have growth at or above 70%?
## Result F

## Task Can O=CN1N=C(c2ccc3c(c2)OCO3)CC1c1cccc(Nc2ccnc3cc(C(F)(F)F)ccc23)c1 (stereo not given) be said to have growth at or above 70%?
## Result T

## Task Can O=C(/C(=C/c1ccc([N+](=O)[O-])cc1)SCc1ccccc1)c1ccc(Cl)cc1 be said to have growth at or above 70%?
## Result T

====

- Test system: HOP-92 NSCLC
- METHOD: NCI-60 one-dose screen, 48 h
- CONDITIONS: 10 µM unless noted
About 83,000 compounds went through this panel and 20% of them were active in at least one assay; those are over-represented in the sample as a whole. Active and inactive are the calls of the source. The calls were made as follows: active = growth percent below 10; inactive = the rest.
Choose one outcome from this list and give only that: 1 (yes) (active), 0 (no) (inactive)

## Task Assay outcome for COc1ccc(/C=C/C(=O)C(CC2CCC2)C(=O)/C=C/c2ccc(OC)c(OC)c2)cc1OC : what was it?
## Result 1 (yes)

## Task Assay outcome for Cc1nnc(/N=C2\NC(=O)/C(=C/c3ccsc3)S2)s1 : what was it?
## Result 0 (no)

## Task Assay outcome for C[C@H]1[C@H](C)CC[C@]2(C(=O)OCCCC[P+](c3ccccc3)(c3ccccc3)c3ccccc3)CC[C@]3(C)C(=CC[C@@H]4[C@@]5(C)CC[C@H](OC(=O)C(Cl)Cl)C(C)(C)[C@@H]5CC[C@]43C)[C@H]12 : what was it?
## Result 1 (yes)

## Task Assay outcome for Cn1c2c(c3ccc(-c4ccn[nH]4)cc3c1=O)C(=O)c1ccccc1-2 : what was it?
## Result 0 (no)

## Task Assay outcome for COC(=O)/C=C1\SC(=Nc2ccc(F)cc2)N(CCc2c[nH]c3ccccc23)C1=O : what was it?
## Result 0 (no)

## Task Assay outcome for CC1(c2ccccc2Cl)NC(=O)NC1=O (centres undefined) : what was it?
## Result 0 (no)

## Task Assay outcome for COc1cc(-c2csc(NC(=O)Nc3cc(Cl)cc(Cl)c3)n2)cc(OC)c1OC : what was it?
## Result 1 (yes)

## Task Assay outcome for O=C(O)COc1ccc2c(=O)c3sc4c(=O)c5ccccc5c(=O)c4c3c(=O)c2c1 : what was it?
## Result 0 (no)

## Task Assay outcome for CCCNc1nc(C)[nH]c(=O)c1S : what was it?
## Result 1 (yes)

====

- Test system: MOLT-4 leukemia
- METHOD: NCI-60 one-dose screen, 48 h (100 = growth as untreated, 0 = no growth, -100 = all killed)
- CONDITIONS: 10 µM unless noted
This is part of a sample that, as a whole, favours compounds with a hit. Of some 83,000 tested, about 20% had one in any assay. Active and inactive are the calls of the source. The calls were made as follows: active = growth percent below 10; inactive = the rest.
ENDPOINT: growth

N#C/C(=C/c1ccc(O)c([N+](=O)[O-])c1)c1nc(-c2ccc([N+](=O)[O-])cc2)cs1 tested on MOLT-4 leukemia gave growth: 25.1% (inactive)

COC(=O)/C=C1\SC(=Nc2cccc(OC)c2)N(CCc2c[nH]c3ccccc23)C1=O tested on MOLT-4 leukemia gave growth: 2.83% (active)

O=C(CN1N=C(c2ccc(F)cc2)CCC1=O)Nc1nc2ccccc2s1 tested on MOLT-4 leukemia gave growth: 33.4% (inactive)

CCOCc1cc(C(C)(C)C)ccc1O tested on MOLT-4 leukemia gave growth: 99.4% (inactive)

O=C(Nc1nc(-c2ccccc2Cl)cs1)c1cc(-c2ccc(Br)cc2)nc2ccccc12 tested on MOLT-4 leukemia gave growth: 37.2% (inactive)

C=C1C(=O)O[C@H]2[C@H]1CC/C(COC(=O)CCCCCCC(=O)OC/C1=C/CC[C@@]3(C)O[C@H]3[C@H]3OC(=O)C(=C)[C@@H]3CC1)=C\CC[C@@]1(C)O[C@@H]21 tested on MOLT-4 leukemia gave growth: 2.4% (active)

COc1ccc(Cc2nc(C#N)c(N3CCN(c4ccc(F)cc4)CC3)o2)cc1 tested on MOLT-4 leukemia gave growth: 87.7% (inactive)

O=C(O)c1cn(C2CC2)c2cc(N3CCN(C(=O)CSc4nnc(-c5ccc(Cl)cc5)n4-c4ccccc4)CC3)c(F)cc2c1=O tested on MOLT-4 leukemia gave growth: 103% (inactive)

COc1ccc(-n2nc(C(=O)NCC(=O)O)nc2-c2ccccc2)cc1 tested on MOLT-4 leukemia gave growth: 100% (inactive)

Recorded values, source PubChem BioAssay (NCI).
